Target: T1, (GA)15: H-CHHHHHH(GA)15-OH
T1 construct: synthetic, not coupled to BSA; also called poly-GA DPR protein peptide
T1 peptide: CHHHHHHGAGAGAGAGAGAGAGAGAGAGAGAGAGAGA
Experiment: indirect ELISA, coated uncoupled peptide

{"columns": ["binder", "EC50, nM"],
 "data": [
  ["NI-308.28G1 (antibody, V domains shown, Recombinant complete human IgG1, kappa) VH: QVQLQESGPRLVKPSETLSLTCTVAGGSVNSYYWTWIQQSPGKGLEWLGRIYIAGRTNYNPSLTSRIALSVDTSRNQLSLKLTSVTAADTAIYYCARWGAESGDYYYGVDVWGPGTLVTVSS VL: EIVMTQSPLSLPVTPGEPASISCKSSEGLLHSNGYTYLDWYLQKPGQAPQLLIFLASNRAAGVPDRFSGSGSGTDFTLKISRVEAEDVGVYYCMQAIQSPWTFGPGTKVEIK", 1.1]
]}
